For each record, write down the corresponding IC50.
system.tested: D(2) dopamine receptor (Rattus norvegicus)
Sequence (P61169 whole entry): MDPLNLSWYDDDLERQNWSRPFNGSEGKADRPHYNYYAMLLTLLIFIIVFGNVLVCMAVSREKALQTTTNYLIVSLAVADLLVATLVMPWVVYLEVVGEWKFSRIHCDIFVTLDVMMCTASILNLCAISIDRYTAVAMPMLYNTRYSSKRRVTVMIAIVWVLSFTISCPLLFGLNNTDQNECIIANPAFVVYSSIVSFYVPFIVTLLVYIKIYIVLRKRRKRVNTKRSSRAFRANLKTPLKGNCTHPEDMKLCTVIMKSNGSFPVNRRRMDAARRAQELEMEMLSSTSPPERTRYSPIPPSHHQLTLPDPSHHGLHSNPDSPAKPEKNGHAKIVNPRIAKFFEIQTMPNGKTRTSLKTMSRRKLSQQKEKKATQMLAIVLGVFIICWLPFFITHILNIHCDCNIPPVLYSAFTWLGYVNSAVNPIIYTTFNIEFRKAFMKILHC
test.summary: Inhibitory concentration against radioligand [3H](-)-sulpiride binding to Dopamine receptor D2 in rat

Asked: Return reported IC50 for target or system D(2) dopamine receptor (Rattus norvegicus), item Clc1ccc(OCCc2ccccc2)c(CCCN2CCN(c3ccccc3)CC2)c1 .
Given back: 180 nM

Asked: Report IC50 on D(2) dopamine receptor (Rattus norvegicus) for this entry: CCCN(CCC)CCc1ccc(OC)c(OCCCc2ccccc2)c1
Given back: > 1000 nM

Asked: For D(2) dopamine receptor (Rattus norvegicus), give the measured IC50 of the entry CCCN(CCC)CCc1ccc(Cl)cc1OCCc1ccccc1
Given back: > 1000 nM

Asked: Retrieve IC50 on D(2) dopamine receptor (Rattus norvegicus); query CCCN(CCC)CCc1ccc(OCCc2ccccc2)c(OC)c1
Given back: > 1000 nM

Asked: With D(2) dopamine receptor (Rattus norvegicus) as the test system, provide measured IC50 for this compound: Clc1ccc(OCCc2ccccc2)c(CCN2CCN(c3ncccn3)CC2)c1
Given back: 143 nM

Asked: State IC50 on D(2) dopamine receptor (Rattus norvegicus). Entry: COc1cccc(CCN2CCN(c3ccccc3)CC2)c1OCCc1ccccc1
Given back: 66 nM

* * *

system.tested: Sigma non-opioid intracellular receptor 1 (Rattus norvegicus)
Sequence (Q9R0C9 whole entry): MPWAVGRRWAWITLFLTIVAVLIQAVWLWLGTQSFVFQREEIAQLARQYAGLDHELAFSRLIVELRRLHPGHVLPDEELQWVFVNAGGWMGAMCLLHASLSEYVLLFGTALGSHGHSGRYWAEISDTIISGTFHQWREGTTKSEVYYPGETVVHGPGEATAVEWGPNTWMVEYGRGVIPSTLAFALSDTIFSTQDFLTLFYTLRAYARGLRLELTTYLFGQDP
test.summary: Inhibitory concentration against radioligand [3H]3-PPP binding to Sigma opioid receptor type 1 in rat brain membrane
Field 'label' (enum: class 1 / class 0). Set to class 1 when IC50 is strictly under 60 nM; else class 0.

Asked: Does the reported IC50 of COc1ccc(CCN2CCOCC2)cc1OCCc1ccccc1 stay below 60 nM?
Given back: class 0

Asked: In the record for COc1ccccc1N1CCN(CCc2cc(Cl)ccc2OCCc2ccccc2)CC1 , is IC50 less than 60 nM?
Given back: class 0

Asked: Dear colleague, could you confirm whether IC50 of Clc1ccc(OCCc2ccccc2)c(CCN2CCCC2)c1 falls below 60 nM? Thanks.
Given back: class 1

Asked: Lab note: confirm whether the reported IC50 for this molecule is below 60 nM, equality not counting. molecule: CCCN(CCC)CCc1cc(Cl)ccc1OCCCc1ccccc1
Given back: class 1

Asked: Dear reviewer, please state whether Clc1ccc(OCCc2ccccc2)c(CCN2CCN(c3ncccn3)CC2)c1 has IC50 strictly beneath 60 nM.
Given back: class 0

Asked: Is it true that IC50 reported for CCCN(CCC)CCc1cc(F)ccc1OCCc1ccccc1 is less than 60 nM?
Given back: class 1

Asked: Given the entry CCCN(CCC)CCc1cccc(F)c1OCCc1ccccc1 , would its reported IC50 be below 60 nM?
Given back: class 1

Asked: Say whether its IC50 is strictly beneath 60 nM. Entry: CCCN(CCC)CCc1ccc(OC)c(OCc2ccccc2)c1.O=C(O)C(=O)O
Given back: class 1

Asked: Hello, I'm reviewing records and need to know if IC50 of Cc1cccc(N2CCN(CCCc3cc(Cl)ccc3OCCc3ccccc3)CC2)n1 is below 60 nM. Could you check?
Given back: class 0

Asked: Dear colleague, could you confirm whether IC50 of COc1cccc(CCN2CCN(c3ccccn3)CC2)c1OCCc1ccccc1 falls below 60 nM? Thanks.
Given back: class 0

Asked: hey, is IC50 for CCCN(CCC)CCc1cc(Br)cc(Br)c1OCCc1ccccc1 lower than 60 nM or not?
Given back: class 0

Asked: I wonder whether COc1cccc(CCN2CCOCC2)c1OCCc1ccccc1 has IC50 below 60 nM. Can you tell?
Given back: class 0

Asked: Does the reported IC50 of Clc1ccc(OCCc2ccccc2)c(CCCN2CCN(c3ccccn3)CC2)c1 stay below 60 nM?
Given back: class 0

Asked: Take the molecule CCCN(CCC)CCc1ccc(OC)c2c1-c1ccccc1CO2 and say whether its IC50 is less than 60 nM.
Given back: class 0

Asked: Please check: IC50 for CCCCCCN(CCC)CCc1ccc(OC)c(OCCc2ccccc2)c1 , strictly under 60 nM or not?
Given back: class 1

Asked: Please determine if CCCN(CCC)CCCc1cccc(OC)c1OCCc1ccccc1 is below 60 nM in terms of IC50.
Given back: class 1

Asked: Find out if reported IC50 for CCCN(CCC)CCc1ccc(OC)c(OCCc2ccc(OC)cc2)c1 is less than 60 nM
Given back: class 1
